Values were extracted from patent US9447135B2.

tested on: ES-7 Ewing sarcoma cell line; experiment: 72 hour cytotoxicity, ES-7; type: cell-based; conditions: Ewing sarcoma cell line ES-7, 72 hour
readout-kind: IC50 (nM)
Record the value in nM, omitting the unit from your answer.

Q: Param readout = IC50; param system = ES-7 Ewing sarcoma cell line; param query = `COC(=O)[C@H](Cc1ccccc1)NC(=O)[C@@H](OC)[C@@H]1Cc2cc3cc(O[C@H]4C[C@@H](O[C@H]5C[C@@H](O)[C@H](O)[C@@H](C)O5)[C@H](O)[C@@H](C)O4)c(C)c(O)c3c(O)c2C(=O)[C@H]1O[C@H]1C[C@@H](O[C@H]2C[C@@H](O[C@H]3C[C@](C)(O)[C@H](O)[C@@H](C)O3)[C@H](O)[C@@H](C)O2)[C@H](O)[C@@H](C)O1` ; response: value
A: 61

Q: Also check CO[C@H](C(=O)NCCc1c[nH]c2ccc(O)cc12)[C@@H]1Cc2cc3cc(OC4CC(OC5CC(O)C(O)C(C)O5)C(O)C(C)O4)c(C)c(O)c3c(O)c2C(=O)[C@H]1OC1CC(OC2CC(OC3CC(C)(O)C(O)C(C)O3)C(O)C(C)O2)C(O)C(C)O1 (some centres unmarked)
A: 753

Q: CO[C@H](C(=O)NCCc1c[nH]c2ccccc12)[C@@H]1Cc2cc3cc(OC4CC(OC5CC(O)C(O)C(C)O5)C(O)C(C)O4)c(C)c(O)c3c(O)c2C(=O)[C@H]1OC1CC(OC2CC(OC3CC(C)(O)C(O)C(C)O3)C(O)C(C)O2)C(O)C(C)O1 (some centres unmarked) ?
A: 86

Q: Repeat for the following compound: CO[C@@H]([C@@H]1Cc2cc3cc(O[C@H]4C[C@@H](O[C@H]5C[C@@H](O)[C@H](O)[C@@H](C)O5)[C@H](O)[C@@H](C)O4)c(C)c(O)c3c(O)c2C(=O)[C@H]1O[C@H]1C[C@@H](O[C@H]2C[C@@H](O[C@H]3C[C@](C)(O)[C@H](O)[C@@H](C)O3)[C@@H](O)[C@@H](C)O2)[C@H](O)[C@@H](C)O1)[C@@H](O)C(C)=O [MTMSK, reference compound]
A: 42

Q: Field entry: COC(=O)[C@H](Cc1ccc(O)cc1)NC(=O)[C@@H](OC)[C@@H]1Cc2cc3cc(OC4CC(OC5CC(O)C(O)C(C)O5)C(O)C(C)O4)c(C)c(O)c3c(O)c2C(=O)[C@H]1OC1CC(OC2CC(OC3CC(C)(O)C(O)C(C)O3)C(O)C(C)O2)C(O)C(C)O1 (some centres unmarked)
A: 189

Q: Input COc1ccc2[nH]cc(CCNC(=O)[C@@H](OC)[C@@H]3Cc4cc5cc(OC6CC(OC7CC(O)C(O)C(C)O7)C(O)C(C)O6)c(C)c(O)c5c(O)c4C(=O)[C@H]3OC3CC(OC4CC(OC5CC(C)(O)C(O)C(C)O5)C(O)C(C)O4)C(O)C(C)O3)c2c1 (some centres unmarked)
A: 79

Q: Next compound: COC(=O)C(Cc1cccc2[nH]ccc12)NC(=O)[C@@H](OC)[C@@H]1Cc2cc3cc(OC4CC(OC5CC(O)C(O)C(C)O5)C(O)C(C)O4)c(C)c(O)c3c(O)c2C(=O)[C@H]1OC1CC(OC2CC(OC3CC(C)(O)C(O)C(C)O3)C(O)C(C)O2)C(O)C(C)O1 (some centres unmarked)
A: 41

Q: Note, next up: COC(=O)[C@@H](OC)[C@@H]1Cc2cc3cc(OC4CC(OC5CC(O)C(O)C(C)O5)C(O)C(C)O4)c(C)c(O)c3c(O)c2C(=O)[C@H]1OC1CC(OC2CC(OC3CC(C)(O)C(O)C(C)O3)C(O)C(C)O2)C(O)C(C)O1 (some centres unmarked)
A: 51
